Entry source: ChEMBL document CHEMBL4513216

- System: Plasmodium berghei
- Assay Summary: Screen against P. berghei liver stage (PbLuc), transformed with Luciferase, at 2uM
- Format: functional, HepG2
- Experimental Context: tested at 2 uM
The campaign covered roughly 68,000 compounds. About 2,700 (4%) showed an effect of 50% or more. This is one part of a sample in which strong results are shown more often than they occur.
We begin with a simple list: items and their reported INHIBITION.
Unit % implied. Number only.

Example entries begin here.
{"columns": ["Compound", "Unit Of Measurement", "INHIBITION"],
 "data": [
  ["OCCC[C@@H]1CN(c2ncc(Cl)cc2Cl)CC[C@@H]1N1CCOCC1", "%", -69.21],
  ["CS(=O)(=O)N1CCC[C@H]1c1ncnn1-c1ccc2c(c1)OCO2", "%", -13.17],
  ["FC(F)(F)c1nc(NC2CCCC2)c2ccccc2n1", "%", 15.52],
  ["COc1ccc(N2CCC(N(C)C(=O)Nc3ccncc3)CC2)cc1", "%", -18.09],
  ["Cc1sc(-n2cnnn2)c(C(=O)NC(C)C)c1C", "%", -21.53]
]}

**Query** Look up INHIBITION: NC(=O)N1CCCC(c2nc(-c3cccnn3)no2)C1 (stereo not drawn)
**Result** 19.39

**Query** Moving on to FC1(F)CCN(Cc2cccnc2)CC12CCN(c1ccccc1)C2 (stereo not drawn)
**Result** 31.41

**Query** Another compound to look at: COc1ccsc1C(=O)Nc1cc(CN2CCOCC2)ccc1C
**Result** 37.63
